# procedure.text: 7-day oral gavage study, metabolic parameters, body weight and food consumption in CR SD rats
# Format: in vivo, rat
# condition.details: 15 mg/kg
Hi there, I'd appreciate the recorded Plasma insulin, % of control values for every entry that follows.
Answer format: value, then unit.

Known results for compounds:
O=C(O)C(F)(F)C(F)(F)C(F)(F)C(F)(F)C(F)(F)C(F)(F)C(F)(F)F :: 2.98%
COC(=O)C(F)(F)C(F)(F)C(F)(F)C(F)(F)C(F)(F)C(F)(F)C(F)(F)F [MPOA, Methyl perfluorooctanoate] :: 2.6%
O=C(O)C(F)(F)C(F)(F)C(F)(F)C(F)(F)C(F)(F)C(F)(F)C(=O)O :: 28.7%

Now for the compound whose Plasma insulin, % of control values we want.
Lookup result for N.O=C(O)C(F)(F)C(F)(F)C(F)(F)C(F)(F)C(F)(F)C(F)(F)C(F)(F)F [APFO, Ammonium perfluorooctanoate] ; measured Plasma insulin, % of control values: 13.5%

----------
# target.or.system: PPAR delta (Homo sapiens)
# Construct: 25 ng of vector DNA carrying PPAR alpha, delta or gamma; expressed in transfected cells; host or cells: COS-1 (African green monkey kidney cells)
# Sequence (Q03181 whole entry): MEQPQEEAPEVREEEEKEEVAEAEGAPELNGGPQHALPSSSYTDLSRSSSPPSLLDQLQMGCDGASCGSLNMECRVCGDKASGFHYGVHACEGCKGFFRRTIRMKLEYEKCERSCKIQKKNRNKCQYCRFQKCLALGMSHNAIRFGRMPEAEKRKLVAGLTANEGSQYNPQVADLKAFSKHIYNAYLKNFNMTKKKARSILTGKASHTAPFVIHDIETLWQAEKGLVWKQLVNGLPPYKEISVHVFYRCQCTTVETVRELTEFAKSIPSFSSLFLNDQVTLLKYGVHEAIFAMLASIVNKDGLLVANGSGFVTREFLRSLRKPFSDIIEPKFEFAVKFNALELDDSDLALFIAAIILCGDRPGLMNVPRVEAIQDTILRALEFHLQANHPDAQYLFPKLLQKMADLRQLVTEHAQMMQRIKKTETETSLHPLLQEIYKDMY
# procedure.text: PPAR delta transactivation assay in COS-1 cells
# Assay type: cell-based
# Design: dose or concentration left out as unconfirmed
# condition.details: mean±SD n=3
Decision: Fold activation of PPAR delta >= 2 fold yields met, all other cases yield not met.

Examples from the recorded data:
O=C(O)C(F)(F)C(F)(F)F [PFPA, Perfluropropionic acid] :: not met
O=C(O)C(F)(F)C(F)(F)C(F)(F)C(F)(F)C(F)(F)C(F)(F)C(=O)O [PFSA, Perfluorosuberic acid (C8)] :: not met
CCCCC[C@H](O)/C=C/[C@@H]1[C@H]2C/C(=C/CCCC(=O)O)C[C@H]2C[C@H]1O [carbaprostacyclin, reference compound] :: met
COC(=O)C(F)(F)C(F)(F)C(F)(F)C(F)(F)C(F)(F)C(F)(F)C(F)(F)F [MPOA, Methyl perfluorooctanoate] :: not met
O=C(O)C(F)(F)C(F)(F)C(F)(F)C(F)(F)F [PFPenA, Perfluoropentanoic acid] :: not met

Now for another entry.
Task item: hey, is Fold activation of PPAR delta for this one >= 2 fold? O=C(O)C(F)(F)C(F)(F)C(F)(F)C(F)(F)C(F)(F)C(F)(F)F [PFHA, Perfluoroheptanoic acid]
Reply: not met

----------
# target.or.system: human PPAR-alpha ligand binding domain (Homo sapiens, UniProt Q07869)
# Sequence (Q07869 179-468): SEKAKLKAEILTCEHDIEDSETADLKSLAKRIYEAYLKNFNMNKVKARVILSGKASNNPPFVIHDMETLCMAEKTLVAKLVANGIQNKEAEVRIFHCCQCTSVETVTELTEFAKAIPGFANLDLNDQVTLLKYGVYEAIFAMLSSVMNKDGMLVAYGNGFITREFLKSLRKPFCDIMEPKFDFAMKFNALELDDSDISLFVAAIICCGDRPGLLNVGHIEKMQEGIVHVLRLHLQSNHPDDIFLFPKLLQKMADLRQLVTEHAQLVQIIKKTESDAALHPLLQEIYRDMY
# procedure.text: PPAR alpha ligand binding (displacement of DAUDA)
# condition.details: PPAR Receptor Binding Kd Alpha (apparent Kd), DAUDA displacement
measured.attribute: Kd (µM)
Give bare numbers, in µM.

// below: answered molecules
N.O=C(O)C(F)(F)C(F)(F)C(F)(F)C(F)(F)C(F)(F)C(F)(F)C(F)(F)F [APFO, Ammonium perfluorooctanoate] :: 8
O=C(O)C(F)(F)C(F)(F)C(F)(F)C(F)(F)C(F)(F)C(F)(F)C(=O)O :: 44
O=C(O)C(F)(F)C(F)(F)C(F)(F)C(F)(F)F :: 62

The recorded Kd for O=C(O)C(F)(F)C(F)(F)C(F)(F)C(F)(F)C(F)(F)C(F)(F)C(F)(F)F is 6

----------
# target.or.system: PPAR delta (Homo sapiens)
# Construct: 25 ng of vector DNA carrying PPAR alpha, delta or gamma; expressed in transfected cells; host or cells: COS-1 (African green monkey kidney cells)
# procedure.text: PPAR delta transactivation assay in COS-1 cells
# Format: cell-based
# condition.details: transactivation assay
Answer each item with its documented Inhibition of activation of PPAR delta (by a factor of).

Here are 4 compounds together with their reported answers.
O=C(O)C(F)(F)C(F)(F)C(F)(F)C(F)(F)C(F)(F)C(F)(F)C(F)(F)F [PFOA, Perfluorooctanoic acid] :: 4
O=C(O)C(F)(F)C(F)(F)C(F)(F)C(F)(F)F [PFPenA, Perfluoropentanoic acid] :: 2.2
O=C(O)C(F)(F)C(F)(F)C(F)(F)C(F)(F)C(F)(F)C(F)(F)C(=O)O [PFSA, Perfluorosuberic acid (C8)] :: 1.6
O=C(O)C(F)(F)C(F)(F)F [PFPA, Perfluropropionic acid] :: 1.6

// next item, Inhibition of activation of PPAR delta (by a factor of) requested
Inhibition of activation of PPAR delta (by a factor of) reading for O=C(O)C(F)(F)C(F)(F)C(F)(F)C(F)(F)C(F)(F)C(F)(F)F [PFHA, Perfluoroheptanoic acid] : 2.2

----------
# System: PC3 cells (human prostate cancer-derived)
# procedure.text: SRB growth inhibition assay, PC3 cells
# Type: cell-based
# condition.details: Homo sapiens, PC-3, 48 hours exposure
# Protocol: The effect of perfluorinated compounds on the inhibition of tumour cell growth was assessed iii vitro using three human tumour-derived cell lines. Cancer cell lines were tested using the sulphorhodamine B (SRB) assay (which measures cellular protein and is directly related to cell number), which is utilised by the […] to screen anti-cancer agents. […]
measured.attribute: pIC50
Numbers only, as −log10 of the molar value.

Record excerpt, results attached:
O=C(O)C(F)(F)C(F)(F)C(F)(F)C(F)(F)F :: 2.58
O=C(O)C(F)(F)C(F)(F)C(F)(F)C(F)(F)C(F)(F)C(F)(F)F :: 3.49

Now turn to the next molecule.
Entry N.O=C(O)C(F)(F)C(F)(F)C(F)(F)C(F)(F)C(F)(F)C(F)(F)C(F)(F)F [APFO, Ammonium perfluorooctanoate] — recorded pIC50 = 3.67

----------
# Tested on: HT-29 cells (human colon tumour-derived)
# procedure.text: SRB growth inhibition assay, HT-29 cells
# Assay type: cell-based
# condition.details: 48 hours exposure
measured.attribute: IC50 (µM)
One number for each entry, in µM.

The recorded IC50 for entry O=C(O)C(F)(F)C(F)(F)C(F)(F)C(F)(F)C(F)(F)C(F)(F)C(F)(F)F equals 398

----------
# target.or.system: human PPAR-gamma ligand binding domain (Homo sapiens)
# Sequence (P37231 202-505): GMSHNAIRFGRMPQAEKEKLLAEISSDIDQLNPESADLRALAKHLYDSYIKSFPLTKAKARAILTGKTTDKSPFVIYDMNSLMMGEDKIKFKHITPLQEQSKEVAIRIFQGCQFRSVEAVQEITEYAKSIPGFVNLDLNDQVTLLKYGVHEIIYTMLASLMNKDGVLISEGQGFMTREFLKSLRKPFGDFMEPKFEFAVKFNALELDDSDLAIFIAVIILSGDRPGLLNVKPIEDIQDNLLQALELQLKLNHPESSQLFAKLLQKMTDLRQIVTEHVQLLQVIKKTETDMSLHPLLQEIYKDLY
# procedure.text: PPAR gamma ligand binding (displacement of cis-parinaric acid)
Field: pKd. Provide a value for each of the compounds that follow.
Give bare numbers, as −log10 of the molar value.

Field: example entries. Status: answers known.
O=C(O)C(F)(F)C(F)(F)C(F)(F)C(F)(F)C(F)(F)C(F)(F)F [PFHA, Perfluoroheptanoic acid] :: 4.00
O=C(O)C(F)(F)C(F)(F)C(F)(F)C(F)(F)C(F)(F)C(F)(F)C(=O)O [PFSA, Perfluorosuberic acid (C8)] :: 4.89

Shifting focus to the compound that follows.
The recorded pKd for O=C(O)C(F)(F)C(F)(F)C(F)(F)C(F)(F)F [PFPenA, Perfluoropentanoic acid] is 4.77

----------
# System: three human tumour-derived cell lines (HT-29, MCF7, PC3)
# procedure.text: SRB growth inhibition, summary over the three human tumour cell lines
# Assay type: cell-based
# condition.details: Homo sapiens; over HT-29, MCF7 and PC3
# Procedure: The effect of perfluorinated compounds on the inhibition of tumour cell growth was assessed iii vitro using three human tumour-derived cell lines. Cancer cell lines were tested using the sulphorhodamine B (SRB) assay (which measures cellular protein and is directly related to cell number), which is utilised by the […] to screen anti-cancer agents. […]
measured.attribute: IC50

Consider the worked cases shown below.
O=C(O)C(F)(F)C(F)(F)C(F)(F)C(F)(F)F :: ~3000 µM
O=C(O)C(F)(F)C(F)(F)C(F)(F)C(F)(F)C(F)(F)C(F)(F)F :: 200 to 600 µM
N.O=C(O)C(F)(F)C(F)(F)C(F)(F)C(F)(F)C(F)(F)C(F)(F)C(F)(F)F [APFO, Ammonium perfluorooctanoate] :: 200 to 600 µM
COC(=O)C(F)(F)C(F)(F)C(F)(F)C(F)(F)C(F)(F)C(F)(F)C(F)(F)F [MPOA, Methyl perfluorooctanoate] :: ~3000 µM

Proceeding to the next molecule to report its IC50.
Form field IC50, entry O=C(O)C(F)(F)C(F)(F)C(F)(F)C(F)(F)C(F)(F)C(F)(F)C(=O)O : ~3000 µM

----------
# target.or.system: human PPAR-gamma ligand binding domain (Homo sapiens)
# procedure.text: PPAR gamma ligand binding (displacement of cis-parinaric acid)
# condition.details: read-out: PPAR Receptor Binding Kd Gamma (apparent Kd); cis-parinaric acid displacement
measured.attribute: Kd (nM)
Answers are plain numbers, in nM.

O=C(O)C(F)(F)C(F)(F)F [PFPA, Perfluropropionic acid] has a reported Kd of 600

----------
# procedure.text: 7-day oral gavage study, metabolic parameters, body weight and food consumption in CR SD rats
# Assay type: in vivo, rat
# condition.details: 15 mg/kg/day oral gavage 7 days, n=5
The threshold is 100 ng/mL. Values of Insulin (plasma) beneath it are tagged fulfilled; values meeting or exceeding it are tagged not fulfilled.

Take a look at these entries with their results.
O=C(O)C(F)(F)C(F)(F)C(F)(F)C(F)(F)C(F)(F)C(F)(F)C(F)(F)F :: fulfilled
O=C(O)C(F)(F)C(F)(F)F :: not fulfilled
O=C(O)C(F)(F)C(F)(F)C(F)(F)C(F)(F)C(F)(F)C(F)(F)F :: not fulfilled
COC(=O)C(F)(F)C(F)(F)C(F)(F)C(F)(F)C(F)(F)C(F)(F)C(F)(F)F [MPOA, Methyl perfluorooctanoate] :: fulfilled

Task item: hey, is Insulin (plasma) for O=C(O)C(F)(F)C(F)(F)C(F)(F)C(F)(F)F lower than 100 ng/mL or not?
Reply: not fulfilled

Task item: Hello, I'm reviewing records and need to know if Insulin (plasma) of O=C(O)C(F)(F)C(F)(F)C(F)(F)C(F)(F)C(F)(F)C(F)(F)C(=O)O is below 100 ng/mL. Could you check?
Reply: fulfilled

Task item: Hi there! Is Insulin (plasma) for N.O=C(O)C(F)(F)C(F)(F)C(F)(F)C(F)(F)C(F)(F)C(F)(F)C(F)(F)F [APFO, Ammonium perfluorooctanoate] below 100 ng/mL, do you know?
Reply: fulfilled
